Attribution: ChEMBL document CHEMBL1142527

- Test system: SiHa
- TEST DETAILS: Cytotoxicity against human SiHa cells after 4 hrs under strict hypoxic condition
- Type: functional, cell-based
- COND: siha
PROPERTY NAME: pIC50
Numbers only, as −log10 of the molar value.

Q: Item CN(C)CCNc1n[n+]([O-])c2cc3c(cc2[n+]1[O-])CCO3 with SiHa - pIC50?
Result: 6.52

---

- TEST DETAILS: Solubility at 22 degC in culture medium in presence of 5% fetal calf serum
- Assay type: physicochemical
- COND: culture medium with 5% fetal calf serum; read-out: solubility
Exercise: for every item that follows, state its recorded solubility.
Numbers only, in mM.

CCc1n[n+]([O-])c2cc3c(cc2[n+]1[O-])CC(CN1CCOCC1)C3 (stereo unspecified); 43
CCc1n[n+]([O-])c2cc3c(cc2[n+]1[O-])CC(CCO)C3 (stereo unspecified); 2
CCN1Cc2cc3c(cc2C1)[n+]([O-])c(N)n[n+]3[O-]; 6
CC1Cc2cc3c(cc2C1)[n+]([O-])c(CCCO)n[n+]3[O-] (stereo unspecified); 10
CCN(CC)CCNc1n[n+]([O-])c2cc3c(cc2[n+]1[O-])OCC3; 47

Go through the items and report each one's solubility.
1. CC1Cc2cc3c(cc2C1)[n+]([O-])c(CCCN1CCOCC1)n[n+]3[O-] (stereo unspecified)
2. CCN(CC)CCNc1n[n+]([O-])c2cc3c(cc2[n+]1[O-])CCC3
3. CCCN(CCC)CCNc1n[n+]([O-])c2cc3c(cc2[n+]1[O-])CCC3
4. [O-][n+]1nc(NCCN2CCCCC2)[n+]([O-])c2ccc3c(c21)CCC3
5. CCCN(CCC)CCNc1n[n+]([O-])c2c3c(ccc2[n+]1[O-])CCC3
6. CN(C)CCNc1n[n+]([O-])c2cc3c(cc2[n+]1[O-])OCC3
7. Nc1n[n+]([O-])c2cc3c(cc2[n+]1[O-])CCC3
8. CCNc1n[n+]([O-])c2cc3c(cc2[n+]1[O-])CC(N(C)C)C3 (stereo unspecified)

Result:
[36, 48, 20, 36, 40, 49, 3, 46]

Go through the items and report each one's solubility.
1. [O-][n+]1nc(CCCN2CCOCC2)[n+]([O-])c2cc3c(cc21)CCO3
2. [O-][n+]1nc(NCCCN2CCOCC2)[n+]([O-])c2cc3c(cc21)CCO3

Result:
51
46

---

- Tested on: HT-29
- TEST DETAILS: Metabolic stability in human HT-29 multicellular layer assessed as apparent first-order rate constant under anoxic condition
- Assay type: ADME, cell-based
Outcome: yes for Activity of at least 0.7 min⁻¹; no for anything lower.

Q: Confirm if Activity reported for the compound CN(C)CCNc1n[n+]([O-])c2cc3c(cc2[n+]1[O-])CCC3 is 0.7 min⁻¹ or above.
Result: no

Q: Confirm if Activity reported for the compound [O-][n+]1nc(NCCCN2CCOCC2)[n+]([O-])c2cc3c(cc21)OCC3 is 0.7 min⁻¹ or above.
Result: no

Q: Confirm if Activity reported for the compound Nc1n[n+]([O-])c2cc3c(cc2[n+]1[O-])CCC3 is 0.7 min⁻¹ or above.
Result: no

Q: Confirm if Activity reported for the compound CN(C)CCNc1n[n+]([O-])c2cc3c(cc2[n+]1[O-])OCO3 is 0.7 min⁻¹ or above.
Result: yes

Q: Confirm if Activity reported for the compound [O-][n+]1nc(NCCCN2CCOCC2)[n+]([O-])c2ccc3c(c21)CCC3 is 0.7 min⁻¹ or above.
Result: no

Q: Confirm if Activity reported for the compound CN(C)CCNc1n[n+]([O-])c2c3c(ccc2[n+]1[O-])OCCC3 is 0.7 min⁻¹ or above.
Result: no

Q: Confirm if Activity reported for the compound CCc1n[n+]([O-])c2cc3c(cc2[n+]1[O-])CC(CN1CCOCC1)C3 (stereo not drawn) is 0.7 min⁻¹ or above.
Result: no

Q: Confirm if Activity reported for the compound CCCN(CCC)CCNc1n[n+]([O-])c2cc3c(cc2[n+]1[O-])CCC3 is 0.7 min⁻¹ or above.
Result: yes

Q: Confirm if Activity reported for the compound [O-][n+]1nc(CCCN2CCOCC2)[n+]([O-])c2cc3c(cc21)CC(CO)C3 (stereo not drawn) is 0.7 min⁻¹ or above.
Result: yes

Q: Confirm if Activity reported for the compound [O-][n+]1nc(CCCN2CCOCC2)[n+]([O-])c2cc3c(cc21)CCO3 is 0.7 min⁻¹ or above.
Result: no

Q: Confirm if Activity reported for the compound CN(C)CCNc1n[n+]([O-])c2c3c(ccc2[n+]1[O-])CCCC3 is 0.7 min⁻¹ or above.
Result: yes

Q: Confirm if Activity reported for the compound [O-][n+]1nc(NCCN2CCCCC2)[n+]([O-])c2ccc3c(c21)CCC3 is 0.7 min⁻¹ or above.
Result: yes

Q: Confirm if Activity reported for the compound CN(C)CCNc1n[n+]([O-])c2cc3c(cc2[n+]1[O-])CCO3 is 0.7 min⁻¹ or above.
Result: yes

Q: Confirm if Activity reported for the compound CCN(CC)CCNc1n[n+]([O-])c2cc3c(cc2[n+]1[O-])CCC3 is 0.7 min⁻¹ or above.
Result: yes

---

- Test system: HT-29
- TEST DETAILS: Cytotoxicity against human HT-29 cells assessed as AUC-time curve providing 10% surviving fraction by clonogenic assay
- Type: functional
Exercise: for every item that follows, state its recorded Activity.
Answers are plain numbers, in µM·h.

Please review the following examples before continuing.
CN(C)CCNc1n[n+]([O-])c2c3c(ccc2[n+]1[O-])CCCC3; 19.5
[O-][n+]1nc(NCCCN2CCOCC2)[n+]([O-])c2ccc3c(c21)CCC3; 176.4
CCc1n[n+]([O-])c2cc3c(cc2[n+]1[O-])CC(CCO)C3 (stereo not given); 41.3
[O-][n+]1nc(CCCN2CCOCC2)[n+]([O-])c2cc3c(cc21)CCO3; 27.6
[O-][n+]1nc(NCCCN2CCOCC2)[n+]([O-])c2cc3c(cc21)OCC3; 116
Nc1n[n+]([O-])c2ccccc2[n+]1[O-]; 24.3
CN(C)CCNc1n[n+]([O-])c2cc3c(cc2[n+]1[O-])CCCCC3; 30.6
CN(C)CCNc1n[n+]([O-])c2cc3c(cc2[n+]1[O-])CCC3; 16

Go through the items and report each one's Activity.
1. COc1ccc2c(c1)[n+]([O-])c(NCCN(C)C)n[n+]2[O-]
2. CCc1n[n+]([O-])c2cc3c(cc2[n+]1[O-])CC(CN1CCOCC1)C3 (stereo not given)

Result:
26.1
24.1

---

- TEST DETAILS: Solubility at 22 degC in culture medium in presence of 5% fetal calf serum
- Format: physicochemical
- COND: culture medium with 5% fetal calf serum; read-out: solubility
PROPERTY NAME: solubility (mM)
Give bare numbers, in mM.

Please review the following examples before continuing.
CN(C)CCNc1n[n+]([O-])c2c3c(ccc2[n+]1[O-])OCCC3; 47
[O-][n+]1nc(NCCCN2CCOCC2)[n+]([O-])c2cc3c(cc21)CCCC3; 49
[O-][n+]1nc(NCCCN2CCOCC2)[n+]([O-])c2ccc3c(c21)CCC3; 46
Nc1n[n+]([O-])c2cc3c(cc2[n+]1[O-])OCC3; 0.1
CN(C)CCNc1n[n+]([O-])c2c3c(ccc2[n+]1[O-])CCCC3; 47

Go through the items and report each one's solubility.
1. [O-][n+]1nc(CCCN2CCOCC2)[n+]([O-])c2cc3c(cc21)CC(CO)C3 (centres undefined)
2. [O-][n+]1nc(NCCCN2CCOCC2)[n+]([O-])c2cc3c(cc21)CCC3
3. [O-][n+]1nc(NCCN2CCCCC2)[n+]([O-])c2cc3c(cc21)CCC3
4. CCc1n[n+]([O-])c2cc3c(cc2[n+]1[O-])CC(CO)C3 (centres undefined)

Result:
1. 48
2. 48
3. 1.9
4. 5

---

- Tested on: HT-29
- TEST DETAILS: Cytotoxicity against human HT-29 cells assessed as AUC-time curve providing 10% surviving fraction by clonogenic assay
- Format: functional
PROPERTY NAME: Activity (µM·h)
Numbers only, in µM·h.

Please review the following examples before continuing.
CN(C)CCNc1n[n+]([O-])c2c3c(ccc2[n+]1[O-])CCC3; 26.3
[O-][n+]1nc(NCCCN2CCOCC2)[n+]([O-])c2cc3c(cc21)CCO3; 82.1
CN(C)CCNc1n[n+]([O-])c2cc3c(cc2[n+]1[O-])CCO3; 18.6
CC1Cc2cc3c(cc2C1)[n+]([O-])c(CCCO)n[n+]3[O-] (stereo not given); 85.3

Q: Item CN(C)CCNc1n[n+]([O-])c2c3c(ccc2[n+]1[O-])OCCC3 with HT-29 - Activity?
Result: 46.1
